Readings of MIC Staphylococcus aureus (GC 1131) for the listed compounds
# Tested on: Staphylococcus sp.
# protocolDetails: in vitro antibacterial evaluation, MIC by broth dilution
# Format: cell-based
# conditionLabel: strain GC 1131; broth dilution, 18 hours at 35° C.
# Excerpt: Methods for in vitro Antibacterial Evaluation (Table 1) […]
recordedMetric: MIC Staphylococcus aureus (GC 1131)

# compound, valueReported
rows = [
    ("CC(C1CCCCC1)C1NC(=O)CNC(=O)C(CO)NC(=O)C(C(O)C2CNC(=N)N2C2OC(CO)C(O)C(O)C2O)NC(=O)C(C(O)C2CNC(=N)N2)NC(=O)C(Cc2ccc(OC3OC(CO)C(OC4OC5COC(c6ccccc6)OC5C(O)C4O)C(O)C3O)cc2)NC1=O (centres unmarked)", "0.25 µg/mL"),
    ("CC(c1ccccc1)C1NC(=O)CNC(=O)C(CO)NC(=O)C(C(O)C2CN(CCCCCCCCCCC(=O)O)C(=N)N2C2OC(CO)C(O)C(O)C2O)NC(=O)C(C(O)C2CNC(=N)N2)NC(=O)C(Cc2ccc(OC3OC(CO)C(OC4OC(CO)C(O)C(O)C4O)C(O)C3O)cc2)NC1=O (centres unmarked)", ">128 µg/mL"),
    ("CCCC(CCC)C(=O)OCC1OC(Oc2ccc(CC3NC(=O)C(C(C)c4ccccc4)NC(=O)CNC(=O)C(CO)NC(=O)C(C(O)C4CNC(=N)N4C4OC(CO)C(O)C(O)C4O)NC(=O)C(C(O)C4CNC(=N)N4)NC3=O)cc2)C(O)C(O)C1OC1OC(CO)C(O)C(O)C1O (centres unmarked) [Example 99b]", "4 µg/mL"),
    ("CC(c1ccc(Cl)cc1)C1NC(=O)CNC(=O)C(CO)NC(=O)C(C(O)C2CNC(=N)N2C2OC(CO)C(O)C(O)C2O)NC(=O)C(C(O)C2CNC(=N)N2)NC(=O)C(Cc2ccc(OC3OC(CO)C(OC4OC5COC(c6ccccc6)OC5C(O)C4O)C(O)C3O)cc2)NC1=O (centres unmarked)", "0.5 µg/mL"),
    ("CCCC(C)C1OCC2OC(OC3C(CO)OC(Oc4ccc(CC5NC(=O)C(C(C)c6ccc(Cl)cc6)NC(=O)CNC(=O)C(CO)NC(=O)C(C(O)C6CNC(=N)N6C6OC(CO)C(O)C(O)C6O)NC(=O)C(C(O)C6CNC(=N)N6)NC5=O)cc4)C(O)C3O)C(O)C(O)C2O1 (centres unmarked)", "1 µg/mL"),
    ("CC(c1ccccc1)C1NC(=O)CNC(=O)C(CO)NC(=O)C(C(O)C2CNC(=N)N2C2OC(CO)C(O)C(O)C2O)NC(=O)C(C(O)C2CNC(=N)N2)NC(=O)C(Cc2ccc3oc(-c4ccc(Br)cc4)nc3c2)NC1=O (centres unmarked)", "16 µg/mL"),
    ("CC(c1ccccc1)C1NC(=O)CNC(=O)C(CO)NC(=O)C(C(O)C2CNC(=N)N2C2OC(CO)C(O)C(O)C2O)NC(=O)C(C(O)C2CNC(=N)N2)NC(=O)C(Cc2ccc3oc(-c4ccc(N(C)C)cc4)nc3c2)NC1=O (centres unmarked)", "8 µg/mL"),
    ("CC(c1ccccc1)C1NC(=O)CNC(=O)C(CO)NC(=O)C(C(O)C2CNC(=N)N2C2OC(CO)C(O)C(O)C2O)NC(=O)C(C(O)C2CNC(=N)N2)NC(=O)C(Cc2ccc3oc(SCc4ccc5ccccc5c4)nc3c2)NC1=O (centres unmarked)", "8 µg/mL"),
]

* * *

# Tested on: Staphylococcus sp.
# protocolDetails: in vitro antibacterial evaluation, MIC by broth dilution
# Type: cell-based
# conditionLabel: broth dilution, 18 hours at 35° C.
# Excerpt: Methods for in vitro Antibacterial Evaluation (Table 1) […]
Numbered stars: 1 amine (or outer) side, 2 acyl side, 3 side chain; on linkers, the order of the positions; unused ones are H or OH. Square brackets hold non-standard residues; d marks the D form. Peptide text beside a SMILES is read from it. * marks the point of attachment. ξ: configuration not given here. X1 = N=C1NCC(C(O)C(N[*:1])C(=O)[*:2])N1C1OC(CO)C(O)C(O)C1O; ξEnduracididine(βξ-OH,4'ξ) = N=C1NCC(C(O)C(N)C(=O)O)N1; ξPhe(4-Cl,βξ-Me) = CC(c1ccc(Cl)cc1)C(N)C(=O)O; X2 = OCC1OC(OC2C(CO)OC(*)C(O)C2O)C(O)C(O)C1O
Reported MIC Staphylococcus aureus (GC 4541) values follow for various compounds

# compound, MIC Staphylococcus aureus (GC 4541)
measured = [
    ("CC(c1ccc(Cl)cc1)C1NC(=O)CNC(=O)C(CO)NC(=O)C(C(O)C2CNC(=N)N2C2OC(CO)C(O)C(O)C2O)NC(=O)C(C(O)C2CNC(=N)N2)NC(=O)C(Cc2ccc(OC3OC(CO)C(OC4OC(CO)C(O)C(O)C4O)C(O)C3O)cc2)NC1=O (stereo not drawn) [Example 262a] (cyclo(G[ξPhe(4-Cl,βξ-Me)]Y(X2)[ξEnduracididine(βξ-OH,4'ξ)][X1]S); configuration not given here)", "64 µg/mL"),
    ("CC(c1ccccc1)C1NC(=O)CNC(=O)C(CO)NC(=O)C(C(O)C2CNC(=N)N2C2OC(CO)C(O)C(O)C2O)NC(=O)C(C(O)C2CNC(=N)N2)NC(=O)C(Cc2ccc(OC3OC(CO)C(OC4OC5COC(CCc6ccccc6)OC5C(O)C4O)C(O)C3O)cc2)NC1=O (stereo not shown)", "2 µg/mL"),
    ("N=C1NCC(C(O)C2NC(=O)C(Cc3ccc(O)cc3)NC(=O)C(Cc3ccccc3)NC(=O)CNC(=O)C(CO)NC(=O)C(C(O)C3CNC(=N)N3C3OC(CO)C(O)C(O)C3O)NC2=O)N1 (stereo not drawn) [Example 279a] (cyclo(GFY[ξEnduracididine(βξ-OH,4'ξ)][X1]S); configuration not given here)", ">64 µg/mL"),
    ("CC(c1ccccc1)C1NC(=O)CNC(=O)C(CO)NC(=O)C(C(O)C2CNC(=N)N2C2OC(CO)C(O)C(O)C2O)NC(=O)C(C(O)C2CNC(=N)N2)NC(=O)C(Cc2ccc(OC3OC(CO)C(OC4OC5COC(Cc6ccc(F)cc6)OC5C(O)C4O)C(O)C3O)cc2)NC1=O (stereo not shown)", "1 µg/mL"),
    ("CCCCCNC(=O)OC1C(CO)OC(OC2C(CO)OC(Oc3ccc(CC4NC(=O)C(C(C)c5ccccc5)NC(=O)CNC(=O)C(CO)NC(=O)C(C(O)C5CNC(=N)N5C5OC(CO)C(O)C(O)C5O)NC(=O)C(C(O)C5CNC(=N)N5)NC4=O)cc3)C(O)C2O)C(O)C1O (stereo not shown)", ">64 µg/mL"),
    ("CC(c1ccccc1)C1NC(=O)CNC(=O)C(CO)NC(=O)C(C(O)C2CNC(=N)N2C2OC(CO)C(O)C(O)C2O)NC(=O)C(C(O)C2CNC(=N)N2)NC(=O)C(Cc2ccc(OC3OC(CO)C(OC4OC5COC(c6cccs6)OC5C(O)C4O)C(O)C3O)cc2)NC1=O (stereo not shown)", "2 µg/mL"),
    ("COc1ccc2cc(COC3C(CO)OC(OC4C(CO)OC(Oc5ccc(CC6NC(=O)C(C(C)c7ccccc7)NC(=O)CNC(=O)C(CO)NC(=O)C(C(O)C7CNC(=N)N7C7OC(CO)C(O)C(O)C7O)NC(=O)C(C(O)C7CNC(=N)N7)NC6=O)cc5)C(O)C4O)C(O)C3O)ccc2c1 (stereo not shown) [Example 230a]", "0.5 to 2 µg/mL"),
]

* * *

# Test system: Enterococcus sp.
# protocolDetails: in vitro antibacterial evaluation, MIC by broth dilution
# Assay type: cell-based
# conditionLabel: strain GC 4558; broth dilution, 18 hours at 35° C.

# compound, MIC Enterococcus avium (GC 4558) (µg/mL)
rows = [
    ("CC(c1ccccc1)C1NC(=O)CNC(=O)C(CO)NC(=O)C(C(O)C2CNC(=N)N2C2OC(CO)C(O)C(O)C2O)NC(=O)C(C(O)C2CNC(=N)N2)NC(=O)C(Cc2ccc(O)c(NC(=O)c3ccccc3)c2)NC1=O (centres unmarked)", 64),
    ("CC(c1ccccc1)C1NC(=O)CNC(=O)C(CO)NC(=O)C(C(O)C2CNC(=N)N2C2OC(CO)C(O)C(O)C2O)NC(=O)C(C(O)C2CNC(=N)N2)NC(=O)C(Cc2ccc(OC3OC(CO)C(OC4OC5COC(c6ccc(-c7ccsc7)cc6)OC5C(O)C4O)C(O)C3O)cc2)NC1=O (centres unmarked)", 8),
]

* * *

# Test system: Staphylococcus sp.
# protocolDetails: in vitro antibacterial evaluation, MIC by broth dilution
# Type: cell-based
# conditionLabel: broth dilution, 18 hours at 35° C.
Numbered stars: 1 amine (or outer) side, 2 acyl side, 3 side chain; on linkers, the order of the positions; unused ones are H or OH. Square brackets hold non-standard residues; d marks the D form. Peptide text beside a SMILES is read from it. * marks the point of attachment. ξ: configuration not given here. X1 = N=C1NCC(C(O)C(N[*:1])C(=O)[*:2])N1C1OC(CO)C(O)C(O)C1O; ξEnduracididine(βξ-OH,4'ξ) = N=C1NCC(C(O)C(N)C(=O)O)N1; ξPhe(4-Cl,βξ-Me) = CC(c1ccc(Cl)cc1)C(N)C(=O)O; X2 = OCC1OC(OC2C(CO)OC(*)C(O)C2O)C(O)C(O)C1O
recordedMetric: MIC Staphylococcus aureus (ATCC 29213) (µg/mL)

# compound, targetDesc, relationalOperator, valueReported
records = [
    ("N=C1NCC(C(O)C2NC(=O)C(Cc3ccc(OC4OC(CO)C(OC5OC6COC7(OC6C6OC8(OC56)C5CC6CC(C5)CC8C6)C5CC6CC(C5)CC7C6)C(O)C4O)cc3)NC(=O)C(CC3CCCCC3)NC(=O)CNC(=O)C(CO)NC(=O)C(C(O)C3CNC(=N)N3C3OC(CO)C(O)C(O)C3O)NC2=O)N1 (stereo not shown) [Example 106b]", "Staphylococcus sp.", "=", 8),
    ("CC(c1ccccc1)C1NC(=O)CNC(=O)C(CO)NC(=O)C(CC2CNC(=N)N2C2OC(CO)C(O)C(O)C2O)NC(=O)C(CC2CNC(=N)N2)NC(=O)C(Cc2ccc(OC3OC(CO)C(OC4OC(CO)C(O)C(O)C4OCc4ccc(OCc5ccccc5)cc4)C(O)C3O)cc2)NC1=O (stereo not shown) [Example 246c]", "Staphylococcus sp.", ">", 128),
    ("CC(c1ccccc1)C1NC(=O)CNC(=O)C(CO)NC(=O)C(C(O)C2CNC(=N)N2C2OC(CO)C(O)C(O)C2O)NC(=O)C(C(O)C2CNC(=N)N2)NC(=O)C(Cc2ccc(OC3OC(CO)C(OC4OC(CO)C(OCC=C(c5ccccc5)c5ccccc5)C(O)C4O)C(O)C3O)cc2)NC1=O (stereo not shown) [Example 241a]", "Staphylococcus sp.", "=", 2),
    ("CC(c1ccc(Cl)cc1)C1NC(=O)CNC(=O)C(CO)NC(=O)C(C(O)C2CNC(=N)N2C2OC(CO)C(O)C(O)C2O)NC(=O)C(C(O)C2CNC(=N)N2)NC(=O)C(Cc2ccc(OC3OC(CO)C(OC4OC(CO)C(O)C(O)C4O)C(O)C3O)cc2)NC1=O (stereo not drawn) [Example 262a] (cyclo(G[ξPhe(4-Cl,βξ-Me)]Y(X2)[ξEnduracididine(βξ-OH,4'ξ)][X1]S); configuration not given here)", "Staphylococcus sp.", "=", 64),
    ("CC(=O)OCC1OC(OC2C(CO)OC(Oc3ccc(CC4NC(=O)C(C(C)c5ccccc5)NC(=O)CNC(=O)C(CO)NC(=O)C(C(O)C5CNC(=N)N5C5OC(CO)C(O)C(O)C5O)NC(=O)C(C(O)C5CNC(=N)N5)NC4=O)cc3)C(O)C2O)C(O)C(OC(=O)CCC(C)C)C1O (stereo not shown) [Example 270b]", "Staphylococcus sp.", "=", 8),
    ("N=C1NCC(C(O)C2NC(=O)C(Cc3ccc(O)cc3)NC(=O)C(Cc3ccccc3)NC(=O)CNC(=O)C(CO)NC(=O)C(C(O)C3CNC(=N)N3C3OC(CO)C(O)C(O)C3O)NC2=O)N1 (stereo not drawn) [Example 279a] (cyclo(GFY[ξEnduracididine(βξ-OH,4'ξ)][X1]S); configuration not given here)", "Staphylococcus sp.", ">", 64),
]
